biological target: T1, cloned human SRIF receptor SSTR1 (human, UniProt P30872 1-391); assay: radioligand displacement (125I-[Leu8,D-Trp22,Tyr25]SRIF-28), membrane pellet sections
T1 construct: whole, on cells; also called hSSTR1
T1 sequence (P30872 whole entry): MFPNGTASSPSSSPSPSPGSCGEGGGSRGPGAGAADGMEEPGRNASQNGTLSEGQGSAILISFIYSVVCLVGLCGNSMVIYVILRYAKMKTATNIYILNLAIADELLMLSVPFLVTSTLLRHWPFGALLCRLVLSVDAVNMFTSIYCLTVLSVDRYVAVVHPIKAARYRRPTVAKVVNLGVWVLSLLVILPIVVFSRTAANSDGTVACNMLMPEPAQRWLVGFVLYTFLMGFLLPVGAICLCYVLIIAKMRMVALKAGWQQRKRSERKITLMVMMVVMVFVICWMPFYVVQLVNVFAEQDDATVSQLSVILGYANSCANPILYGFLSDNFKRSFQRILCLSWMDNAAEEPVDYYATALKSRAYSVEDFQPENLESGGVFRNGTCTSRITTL
pIC50: −log10 of the molar value. Bridge positions count the residues as written; N and C are the ends. Square brackets hold non-standard residues; d marks the D form. * marks the point of attachment. Phe(4-NH2) = Nc1ccc(C[C@H](N)C(=O)O)cc1; Carbamoyl = NC(=O)*
PARAMETER_MEASURED: pIC50

BINDER | OBSERVED_RESULT
H-CF[Phe(4-NH2)]WKTYC-OH (disulfide 1-8, synthetic cyclic octapeptide; also called Peptide 9; Peptide No. 9) [(cyclo)H-Cys-Phe-4Aph-Trp-Lys-Thr-Tyr-Cys-OH] | 6.49
H-YCFA[dW]KTFC-OH (disulfide 2-9, synthetic cyclic nonapeptide; also called Peptide No. 14) [(cyclo)H-Tyr-Cys-Phe-Ala-D-Trp-Lys-Thr-Phe-Cys-OH] | 6.48
Carbamoyl-YCF[Phe(4-NH2)]WKTFC-OH (disulfide 2-9, synthetic cyclic nonapeptide; also called Peptide No. 8) [(cyclo)Cbm-Tyr-Cys-Phe-4Aph-Trp-Lys-Thr-Phe-Cys-OH] | 6.46
Carbamoyl-CF[Phe(4-NH2)][dW]KTFC-OH (disulfide 1-8; SMILES C[C@@H](O)[C@@H]1NC(=O)[C@H](CCCCN)NC(=O)[C@@H](Cc2c[nH]c3ccccc23)NC(=O)[C@H](Cc2ccc(N)cc2)NC(=O)[C@H](Cc2ccccc2)NC(=O)[C@@H](NC(N)=O)CSSC[C@@H](C(=O)O)NC(=O)[C@H](Cc2ccccc2)NC1=O, synthetic cyclic octapeptide; also called Peptide No. 4) [(cyclo)Cbm-Cys-Phe-4Aph-D-Trp-Lys-Thr-Phe-Cys-OH] | 6.08
